- procedure-text: Oral bioavailability in rat at 25 mg/kg, po
- Type: ADME, organism-based
- condition-info: in vivo
attribute-measured: bioavailability (%)
Respond with the bare value in %.

Which measured bioavailability value corresponds to CCC[C@H](Nc1nc(-c2ccc(NC(=O)NCC)c(OC)c2)ncc1C)c1cccnc1 ?
78

----------
- procedure-text: Apparent volume of distribution in rat at 5 mg/kg, iv in presence of captisol
- Assay type: ADME, organism-based
- Parameters: dose 5 mg/kg, route intravenous
- condition-info: in vivo, read-out: Vz
attribute-measured: Vd (L/kg)
Respond with the bare value in L/kg.

Which measured Vd value corresponds to CCC[C@H](Nc1cncc(-c2ccc(NC(=O)NCC)c(OC)c2)n1)c1cccnc1 ?
7.1

----------
- procedure-text: Clearance in rat at 5 mg/kg, iv in presence of captisol
- Type: ADME, organism-based
- Design: dose 5 mg/kg, route intravenous
- condition-info: in vivo
attribute-measured: clearance (mL/min/kg)
Respond with the bare value in mL/min/kg.

Which measured clearance value corresponds to CCC[C@H](Nc1cncc(-c2ccc(NC(=O)NCC)c(OC)c2)n1)c1cccnc1 ?
127

----------
- procedure-text: Half life in rat at 5 mg/kg, iv in presence of captisol
- Assay type: ADME, organism-based
- Set-up: dose 5 mg/kg, route intravenous
- condition-info: in vivo
attribute-measured: half-life
Phrase the answer as number then unit, nothing more needed.

Which measured half-life value corresponds to CCC[C@H](Nc1cncc(-c2ccc(NC(=O)NCC)c(OC)c2)n1)c1cccnc1 ?
36 min

----------
- Test system: PC-3
- procedure-text: Cytotoxicity against human PC3 cells after 72 hrs by MTT assay
- Type: functional, cell-based
- condition-info: PC-3, 72 h
pIC50: −log10 of the molar value.
Output True for pIC50 not less than 6; output False otherwise.

Decide: pIC50 of CCC[C@H](Nc1ccnc(-c2ccc(NC(=O)NCC)c(OC)c2)n1)c1cccnc1 >= 6?
True

Also check CCCC(Nc1cncc(-c2ccc(NC(=O)NCC)c(CC)c2)n1)c1cccnc1 (configuration not stated)
True

Also check CCCC(Nc1cncc(-c2ccc(O)c(OC)c2)n1)c1cccc(F)c1 (configuration not stated)
True

Also check CCC[C@H](Nc1cc(-c2ccc(NC(=O)NCC)c(OC)c2)ncn1)c1cccnc1
True

Also check CCC[C@H](Nc1cc(C)nc(-c2ccc(NC(=O)NCC)c(OC)c2)n1)c1cccnc1
True

Also check CCC[C@H](Nc1cc(-c2ccc(NC(=O)NCC)c(OC)c2)nc(C)n1)c1cccnc1
True

Also check CCC[C@H](Nc1nc(-c2ccc(NC(=O)NCC)c(OC)c2)ncc1C)c1cccnc1
True

Also check CCCC(Nc1cncc(-c2ccc(O)c(OC)c2)n1)c1cccnc1 (configuration not stated)
True

Also check CC[C@H](Nc1cncc(-c2ccc(O)c(OC)c2)n1)c1ccccc1
False

Also check CCCC(Nc1cncc(-c2ccc(O)c(OC)c2)n1)c1cccc(OC)c1 (configuration not stated)
False

Also check CCCC(=O)Nc1ccc(-c2cncc(NC(CCC)c3cccnc3)n2)cc1OC (configuration not stated)
True

Also check CCCC(Nc1cncc(-c2ccc(O)c(OC)c2)n1)c1ccc(OC)cc1 (configuration not stated)
False

Also check CCCC(Nc1cncc(-c2ccc(NC(=O)NCC)c(OC)c2)n1)c1cccnc1 (configuration not stated)
True

Also check CCCC(Nc1cncc(-c2ccc(O)c(OC(C)C)c2)n1)c1cccnc1 (configuration not stated)
False

Also check CCCC(Nc1cncc(-c2ccc(O)c(OC)c2)n1)c1ccc(Cl)cc1 (configuration not stated)
False

Also check CCCC(Nc1cncc(-c2ccc(NC(C)=O)c(OC)c2)n1)c1cccnc1 (configuration not stated)
False

Also check COc1cc(-c2cncc(N[C@@H](C)c3ccccc3)n2)ccc1O
False

Also check CCC[C@H](Nc1cncc(-c2ccc(O)c(OC)c2)n1)c1ccccc1
True

Also check CCCC(Nc1cncc(-c2ccc(O)c(OC)c2)n1)c1ccccc1 (configuration not stated)
True

----------
- procedure-text: Cmax in rat at 25 mg/kg, po
- Type: ADME, organism-based
- Set-up: dose 25 mg/kg, route oral
- condition-info: in vivo
attribute-measured: Cmax (µM)
Respond with the bare value in µM.

Which measured Cmax value corresponds to CCC[C@H](Nc1nc(-c2ccc(NC(=O)NCC)c(OC)c2)ncc1C)c1cccnc1 ?
9.4

----------
- procedure-text: Apparent volume of distribution in rat at 5 mg/kg, iv
- Type: ADME, organism-based
- Design: dose 5 mg/kg, route intravenous
- condition-info: in vivo, read-out: Vz
attribute-measured: Vd (L/kg)
Respond with the bare value in L/kg.

Which measured Vd value corresponds to CCC[C@H](Nc1nc(-c2ccc(NC(=O)NCC)c(OC)c2)ncc1C)c1cccnc1 [LEXIBULIN] ?
5.2

----------
Please respond with reported IC50 for every item in the list.
- Tested on: PC-3
- procedure-text: Cytotoxicity against human PC3 cells after 72 hrs by MTT assay
- Type: functional, cell-based
- condition-info: PC-3, 72 h
Respond with the bare value in nM.

Param readout= IC50; system= PC-3; entry= CCCC(Nc1cncc(-c2ccc(O)c(OC)c2)n1)c1cccc(Cl)c1 (stereo not drawn) ; returns value.
1000

Also check CCCC(Nc1cncc(-c2ccc(O)c(OCC)c2)n1)c1cccnc1 (stereo not drawn)
1000

Also check CCCC(Nc1cncc(-c2ccc(NC(=O)NCCN(C)C)c(OC)c2)n1)c1cccnc1 (stereo not drawn)
1000

Each recorded value in this set is attributed to ChEMBL document CHEMBL1153491.
